system: CD2F1 mice, L1210 leukemia ip, survival T/C; assay: NCI In Vivo Anticancer Drug Screen. Data for tumor model L1210 Leukemia (intraperitoneal) in CD2F1 (CDF1) mice; conditions: endpoint: mean survival time; dose: 50.0 mg/kg/injection; schedule: Q01DX009 (ip); vehicle: saline; higher = longer survival
Inconclusive results and toxic doses are left out.
Provide the recorded T/C for the entries that follow.

Query string: Reported T/C for NC1=NCN(C2OC(CO)C(O)C2O)C(=O)N1 (stereo not given) : what is it?
Result string: 110 % of control

Query string: Give the measured T/C of COC(=O)CC(NC(=O)C(CSC(c1ccccc1)(c1ccccc1)c1ccccc1)NC(c1ccccc1)(c1ccccc1)c1ccccc1)C(=O)OC (stereo not given) .
Result string: 95 % of control

Query string: Look up T/C: CS(C)=O.CS(C)=O.[Cl][Rh]([Cl])([Cl])[Cl]
Result string: 119 % of control

Query string: For the compound shown here, CCN(CC)CCOC(=O)Cc1cccc2c(=O)cc(-c3ccccc3)oc12 , give the reported T/C.
Result string: 111 % of control

Query string: Entry CCc1c(O)c2c(c(O)c1C(C)=O)C(=O)c1c(cc(O)c(C(=O)O)c1C(=O)O)C2=O has what T/C?
Result string: 108 % of control

Query string: Return reported T/C; argument: O=C(Nc1ccc(Cl)c(C(F)(F)F)c1)Nc1c(Oc2ccc(Cl)c(Cl)c2)ccc(Cl)c1S(=O)(=O)O
Result string: 100 % of control

Query string: Any idea what its T/C is? The compound is OCCN1CCN(CC/C=C2/c3ccccc3Sc3ccc(Cl)cc32)CC1
Result string: 106 % of control

Query string: Value lookup for T/C; key = CN1COc2c(Cl)cc(Cl)cc2C1
Result string: 104 % of control

Query string: Any idea what T/C was measured for CCOC(=O)c1cc(Cl)cc(Cl)c1N=NN(C)C ?
Result string: 93 % of control

Query string: Name the recorded T/C for FC(F)(F)c1nc2nccnc2[nH]1 .
Result string: 95 % of control
